Target: Metabotropic glutamate receptor 3 (Rattus norvegicus)
Test: rat mGlu3 negative modulators or antagonists, dose response, thallium flux, HEK/GIRK cells (AID 623885)
Conditions: HEK293 GIRK rat mGlu3, thallium flux fluorescence; at 30 µM (top of the series)
Active and inactive are the calls of the source.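 The calls were made as follows: active = mean half-maximal effective concentration under 30 µM; inactive = the rest.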
Returns: one label drawn from 1.0 for active, 0.0 for inactive

[[record]]
molecular_string = "COc1ccc(C#Cc2ccc(C(=O)N[C@H]3CCCCNC3=O)cc2)cc1"
class_name = 0.0

[[record]]
molecular_string = "CCCCN(CCO)C(=O)c1ccc(C#Cc2ccc(OC)cc2)cc1"
class_name = 1.0


## Task Kindly provide the recorded test outcome for the following compound: `O=C(c1ccc(C#Cc2ccc(Cl)cc2)cc1)N1CCC(O)CC1`
## Result 1.0
